Parameter TERMINAL_BW: see the listing below.
Species on record: Rattus norvegicus
Assay: Open TG-GATES - Regimen: Single
Assay type: toxicity, organism-based, Sprague-Dawley
Set-up: regimen Single, gender Male, age 6 weeks
Details: in vivo, po, 0 mg/kg, 3 h, route gavage, dose level Control
Lab book: enter the figure in g, no units written.

Use these answered entries as a reference point.
O=C(CCCN1CCC(O)(c2ccc(Cl)cc2)CC1)c1ccc(F)cc1	208.8
NC(N)=Nc1nc(CSCCC(N)=NS(N)(=O)=O)cs1	217.3
CN(C)CCCN1c2ccccc2CCc2ccccc21	203.9

Input line: // lookup TERMINAL_BW for CCOc1ccc(NC(=O)CC(C)O)cc1 (centres undefined)
Output line: 208.8

Input line: // lookup TERMINAL_BW for COc1cc2c(c(OC)c1OC)-c1ccc(OC)c(=O)cc1[C@@H](NC(C)=O)CC2
Output line: 221.7

Input line: // lookup TERMINAL_BW for CC1=C(/C=C/C(C)=C/C=C/C(C)=C/CO)C(C)(C)CCC1
Output line: 195.7

Input line: // lookup TERMINAL_BW for CN(C)CCN(Cc1cccs1)c1ccccn1
Output line: 183.4

Input line: // lookup TERMINAL_BW for C[C@@H]1C[C@H]2[C@@H]3CCC4=CC(=O)C=C[C@]4(C)[C@@]3(F)[C@@H](O)C[C@]2(C)[C@@]1(O)C(=O)CO
Output line: 213.8

Input line: // lookup TERMINAL_BW for CN(C)CCCN1c2ccccc2CCc2ccc(Cl)cc21
Output line: 213.4
